Data origin, for the record: ChEMBL document CHEMBL3352164

- Procedure Details: Half life in Sprague-Dawley rat at 1.57 mg/kg, iv
- Format: ADME, organism-based
- Set-up: dose 1.57 mg/kg, route intravenous
- Test Context: in vivo
Reported Metric: half-life (h)
The response must be a number in h with no trailing unit.

Entry under review: CC(C)(C)c1cc(F)c(NC(=O)c2c[nH]c3ccccc3c2=O)cc1O . Reported half-life?
1.1

====

- Procedure Details: AUC (0 to infinity) in Sprague-Dawley rat at 2.49 mg/kg, iv
- Type: ADME, organism-based
- Parameters: time infinity, dose 2.49 mg/kg, route intravenous
- Test Context: plasma
Reported Metric: AUC(0-inf) (ng·h/mL)
Provide only the numeric value, understood in ng·h/mL.

Field request: AUC(0-inf) | item: CC(C)(C)c1cc2cc[nH]c2cc1NC(=O)c1c[nH]c2ccccc2c1=O
2640

====

- Procedure Details: Half life in Cynomolgus monkey at 0.8 mg/kg, iv
- Type: ADME, organism-based, Macaca fascicularis
- Design: dose 0.8 mg/kg, route intravenous
- Test Context: in vivo
Reported Metric: half-life

Query: half-life; subject: CC(C)(C)c1cc(C(C)(C)C)c(NC(=O)c2c[nH]c3ccccc3c2=O)cc1O
6.7 h

====

Reported Metric: IC50

Give the reported IC50 for CC(C)(C)c1cc(C(C)(C)C)c(NC(=O)c2c[nH]c3ccccc3c2=O)cc1O (system: Cytochrome P450 2E1 (Homo sapiens)).
Sequence (P05181 whole entry): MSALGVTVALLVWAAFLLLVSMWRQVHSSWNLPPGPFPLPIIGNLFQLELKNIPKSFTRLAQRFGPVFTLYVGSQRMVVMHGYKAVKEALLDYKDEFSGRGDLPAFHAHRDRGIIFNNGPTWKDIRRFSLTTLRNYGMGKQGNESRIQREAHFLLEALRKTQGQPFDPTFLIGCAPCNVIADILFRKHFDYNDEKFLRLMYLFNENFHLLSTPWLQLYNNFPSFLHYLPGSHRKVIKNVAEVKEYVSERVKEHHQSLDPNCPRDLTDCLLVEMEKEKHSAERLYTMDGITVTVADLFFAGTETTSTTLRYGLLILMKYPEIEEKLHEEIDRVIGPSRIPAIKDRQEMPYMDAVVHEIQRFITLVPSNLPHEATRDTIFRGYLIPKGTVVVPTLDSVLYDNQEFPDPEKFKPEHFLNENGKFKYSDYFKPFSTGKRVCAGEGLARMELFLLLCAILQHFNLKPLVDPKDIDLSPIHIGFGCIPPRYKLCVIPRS
> 20 µM

====

- Procedure Details: Clearance in Sprague-Dawley rat at 2.5 mg/kg, iv
- Assay type: ADME, organism-based
- Set-up: dose 2.5 mg/kg, route intravenous
- Test Context: in vivo
Reported Metric: clearance (mL/min/kg)
Give the value in mL/min/kg but do not write mL/min/kg after it.

# clearance lookup, item O=C(Nc1ccc2cc[nH]c2c1)c1c[nH]c2ccccc2c1=O
28

====

- Procedure Details: Half life in Sprague-Dawley rat at 2.45 mg/kg, iv
- Format: ADME, organism-based
- Design: dose 2.45 mg/kg, route intravenous
- Test Context: in vivo
Reported Metric: half-life
The reply should read as a number followed by its unit.

Quick one: half-life for CC(C)(C)c1c[nH]c2cc(NC(=O)c3c[nH]c4ccccc4c3=O)ccc12 ?
1.3 h

====

- Procedure Details: Volume of distribution at steady state in Sprague-Dawley rat at 2.5 mg/kg, iv
- Format: ADME, organism-based
- Design: dose 2.5 mg/kg, route intravenous
- Test Context: in vivo, read-out: Vdss
Reported Metric: Vd (L/kg)
Answer with a number only, understood to be in L/kg.

Fill in: Vd of O=C(Nc1ccc2cc[nH]c2c1)c1c[nH]c2ccccc2c1=O is ___
2.4

====

- Procedure Details: Clearance in Sprague-Dawley rat at 1.29 mg/kg, iv
- Type: ADME, organism-based
- Set-up: dose 1.29 mg/kg, route intravenous
- Test Context: in vivo
Reported Metric: clearance (mL/min/kg)
Enter your answer as a number in mL/min/kg; do not include the unit.

Could you share which clearance value was measured for CC(C)(C)c1ccc(NC(=O)c2c[nH]c3ccccc3c2=O)cc1O ?
85.6

====

- Assayed System: Cystic fibrosis transmembrane conductance regulator (Homo sapiens, UniProt P13569, F508DEL)
- Sequence (P13569 as listed by the source): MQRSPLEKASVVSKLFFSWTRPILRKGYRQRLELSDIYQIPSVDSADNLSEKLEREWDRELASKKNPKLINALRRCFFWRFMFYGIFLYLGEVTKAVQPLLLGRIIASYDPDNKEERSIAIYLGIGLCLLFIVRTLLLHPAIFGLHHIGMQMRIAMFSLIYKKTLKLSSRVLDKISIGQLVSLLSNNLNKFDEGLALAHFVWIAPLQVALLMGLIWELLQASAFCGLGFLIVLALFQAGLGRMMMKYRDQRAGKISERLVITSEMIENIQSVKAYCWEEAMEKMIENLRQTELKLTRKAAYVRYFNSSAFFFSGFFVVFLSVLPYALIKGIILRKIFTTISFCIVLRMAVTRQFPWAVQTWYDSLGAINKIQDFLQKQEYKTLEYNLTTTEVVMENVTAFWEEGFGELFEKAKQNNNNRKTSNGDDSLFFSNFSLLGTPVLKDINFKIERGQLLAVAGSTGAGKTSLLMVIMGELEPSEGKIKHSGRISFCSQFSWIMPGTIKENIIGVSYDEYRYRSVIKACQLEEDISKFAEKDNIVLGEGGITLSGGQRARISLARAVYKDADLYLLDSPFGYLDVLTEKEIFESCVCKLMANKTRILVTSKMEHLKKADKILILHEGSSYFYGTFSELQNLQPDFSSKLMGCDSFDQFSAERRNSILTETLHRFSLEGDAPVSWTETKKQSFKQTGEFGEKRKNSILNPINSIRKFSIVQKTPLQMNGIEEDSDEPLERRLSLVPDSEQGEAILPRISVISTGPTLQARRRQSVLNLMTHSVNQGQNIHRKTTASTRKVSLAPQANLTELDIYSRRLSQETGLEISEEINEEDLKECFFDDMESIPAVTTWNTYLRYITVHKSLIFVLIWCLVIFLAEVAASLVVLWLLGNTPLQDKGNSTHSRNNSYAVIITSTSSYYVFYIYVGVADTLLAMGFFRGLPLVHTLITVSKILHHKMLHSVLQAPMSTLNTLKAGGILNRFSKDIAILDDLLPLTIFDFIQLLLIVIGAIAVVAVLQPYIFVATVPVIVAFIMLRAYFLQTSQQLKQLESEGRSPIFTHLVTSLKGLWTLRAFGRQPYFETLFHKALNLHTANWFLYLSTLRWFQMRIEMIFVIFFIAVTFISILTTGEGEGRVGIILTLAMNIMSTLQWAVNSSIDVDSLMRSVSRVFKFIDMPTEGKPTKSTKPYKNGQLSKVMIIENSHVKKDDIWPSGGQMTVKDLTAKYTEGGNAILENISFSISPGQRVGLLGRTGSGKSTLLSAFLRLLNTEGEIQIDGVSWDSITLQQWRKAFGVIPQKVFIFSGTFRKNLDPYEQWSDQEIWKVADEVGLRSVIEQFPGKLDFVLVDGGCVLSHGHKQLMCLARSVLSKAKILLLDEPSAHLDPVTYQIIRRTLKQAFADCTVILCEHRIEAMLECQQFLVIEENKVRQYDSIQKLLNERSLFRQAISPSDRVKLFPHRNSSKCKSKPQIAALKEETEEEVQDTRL
- Procedure Details: Potentiation of human CFTR F508del mutant expressed in mouse NIH-3T3 cells after 30 mins by fluorescent voltage sensing optical assay
Reported Metric: EC50 (nM)
Report the value in nM with no unit label.

Suppose we examine the compound CC(C)(C)c1ccc(NC(=O)c2c[nH]c3ccccc3c2=O)cc1O ; what EC50 value has been reported?
3

So what's the measured EC50 for this one? CCc1c[nH]c2cc(NC(=O)c3c[nH]c4ccccc4c3=O)ccc12
100

Report EC50 for CC(C)c1ccc(NC(=O)c2c[nH]c3ccccc3c2=O)cc1N please.
300

Which EC50 is listed for CC(C)(C)c1ccc(NC(=O)c2c[nH]c3ccccc3c2=O)cc1S(N)(=O)=O ?
5100

Consider the compound CC(C)(C)c1ccc(NC(=O)c2c[nH]c3ccccc3c2=O)cc1F and give its measured EC50.
100

====

- Procedure Details: Half life in Sprague-Dawley rat at 2.5 mg/kg, iv
- Format: ADME, organism-based
- Design: dose 2.5 mg/kg, route intravenous
- Test Context: in vivo
Reported Metric: half-life (min)
Kindly provide the numeric value in min only, without the unit symbol.

Consider the compound O=C(Nc1ccc2cc[nH]c2c1)c1c[nH]c2ccccc2c1=O and give its measured half-life.
78

====

- Procedure Details: Clearance in Cynomolgus monkey at 0.8 mg/kg, iv
- Format: ADME, organism-based, Macaca fascicularis
- Parameters: dose 0.8 mg/kg, route intravenous
- Test Context: in vivo
Reported Metric: clearance (L/h/kg)
Value expressed in L/h/kg; do not type the unit.

clearance for CC(C)(C)c1cc(C(C)(C)C)c(NC(=O)c2c[nH]c3ccccc3c2=O)cc1O ?
0.444

====

- Procedure Details: Volume of distribution at steady state in Sprague-Dawley rat at 2.45 mg/kg, iv
- Format: ADME, organism-based
- Design: dose 2.45 mg/kg, route intravenous
- Test Context: in vivo, read-out: Vdss
Reported Metric: Vd (L/kg)
Express it in L/kg; write the number only.

Fill blank: measured Vd of the molecule CC(C)(C)c1c[nH]c2cc(NC(=O)c3c[nH]c4ccccc4c3=O)ccc12 is ____.
4.4

====

- Procedure Details: AUC (0 to infinity) in Sprague-Dawley rat at 2.45 mg/kg, iv
- Type: ADME, organism-based
- Design: time infinity, dose 2.45 mg/kg, route intravenous
- Test Context: plasma
Reported Metric: AUC(0-inf) (ng·h/mL)
Answer format: numeric, ng·h/mL implied, no suffix.

Query: AUC(0-inf); subject: CC(C)(C)c1c[nH]c2cc(NC(=O)c3c[nH]c4ccccc4c3=O)ccc12
700

====

- Procedure Details: Clearance in Sprague-Dawley rat at 1.57 mg/kg, iv
- Format: ADME, organism-based
- Parameters: dose 1.57 mg/kg, route intravenous
- Test Context: in vivo
Reported Metric: clearance (mL/min/kg)
Write the number in mL/min/kg without appending the unit.

Would you mind telling me what clearance value was observed for CC(C)(C)c1cc(F)c(NC(=O)c2c[nH]c3ccccc3c2=O)cc1O ?
62.9

====

- Procedure Details: Half life in mouse at 3 mg/kg, iv
- Assay type: ADME, organism-based
- Design: dose 3 mg/kg, route intravenous
- Test Context: in vivo
Reported Metric: half-life
Give the number first and the unit second.

Sample CC(C)(C)c1cc(C(C)(C)C)c(NC(=O)c2c[nH]c3ccccc3c2=O)cc1O — what was its half-life?
1.3 h

====

- System: Cystic fibrosis transmembrane conductance regulator (Homo sapiens), P13569 [F508del]
- Sequence (P13569 as listed by the source): as the sequence (P13569 as listed by the source) above
- Procedure Details: Potentiation of human CFTR F508del mutant expressed in mouse NIH-3T3 cells at 30 uM after 30 mins by fluorescent voltage sensing optical assay relative to VRT-532
- Assay type: cell-based
- Test Context: NIH3T3
Task for the reader: assign each of the following compounds its reported Activity.
Write it as a number; the unit % goes unstated.

Find the recorded Activity belonging to O=C(Nc1cnc2ccccc2c1O)c1ccc2cc[nH]c2c1 and report it.
8

What measured Activity goes with CC(C)(C)c1ccc(NC(=O)c2c[nH]c3ccccc3c2=O)cc1C(=O)O ?
13

Request the reported Activity associated with O=C(Oc1ccc2cc[nH]c2c1)c1c[nH]c2ccccc2c1=O
19

What Activity value was documented for this compound, O=C1Cc2ccc(NC(=O)c3c[nH]c4ccccc4c3=O)cc2N1 ?
21

Could you tell me which Activity is on file for O=C(c1cnccc1O)N(Cc1ccccc1)Cc1ccccc1 ?
2

// lookup Activity for O=C(c1cnc2ccccn2c1=O)N(Cc1ccccc1)Cc1ccccc1
10

====

- Assayed System: Cystic fibrosis transmembrane conductance regulator (Homo sapiens, UniProt P13569, F508DEL)
- Procedure Details: Potentiation of human CFTR F508del mutant expressed in mouse NIH-3T3 cells after 30 mins by fluorescent voltage sensing optical assay
Rule for this label: fulfilled means EC50 is less than 2000 nM; not fulfilled means EC50 is at least 2000 nM.

Take the molecule CC(C)c1ccccc1NC(=O)c1c[nH]c2ccccc2c1=O and say whether its EC50 is less than 2000 nM.
fulfilled

Identify whether the molecule CCc1cc2cc[nH]c2cc1NC(=O)c1c[nH]c2ccccc2c1=O records EC50 below 2000 nM.
fulfilled

EC50 strictly < 2000 nM for this molecule? O=C(Nc1ccccc1)c1c[nH]c2ccccc2c1=O
fulfilled

is_below(EC50, 2000 nM) for Nc1cccc(NC(=O)c2c[nH]c3ccccc3c2=O)c1 ?
not fulfilled

Dear colleague, could you confirm whether EC50 of CC(C)(C)c1ccc(NC(=O)c2c[nH]c3ccccc3c2=O)cc1 falls below 2000 nM? Thanks.
fulfilled

Regarding Cn1ccc2ccc(NC(=O)c3c[nH]c4ccccc4c3=O)cc21 , kindly confirm whether its EC50 is beneath 2000 nM.
not fulfilled

Would you kindly verify if EC50 of CCc1cccc(CC)c1NC(=O)c1c[nH]c2ccccc2c1=O is strictly less than 2000 nM?
fulfilled

In plain terms, does CCc1ccccc1NC(=O)c1c[nH]c2ccccc2c1=O come in under 2000 nM for EC50?
fulfilled

Please indicate whether the reported EC50 of CC(C)(C)c1ccc(NC(=O)c2c[nH]c3ccccc3c2=O)cc1N is strictly below 2000 nM.
fulfilled

Is EC50 strictly under 2000 nM for the entry O=C(Nc1ccc2cc[nH]c2c1)c1c[nH]c2ccccc2c1=O ?
fulfilled

Field: below-cutoff. Rule: recorded EC50 strictly less than 2000 nM. Subject: N#CCc1ccccc1NC(=O)c1c[nH]c2ccccc2c1=O
not fulfilled
